tested on: Becap-37 (human breast cancer) cells; experiment: MTT cell growth inhibition, solid tumor cells; assay type: cell-based; details: Homo sapiens; Becap-37, 72 h, MTT; read-out: IC90
measurement-label: IC90 (µg/mL)
Report the figure in µg/mL without appending any unit label.

{"compound": "COc1ccc2cc1Oc1ccc(cc1)C[C@H]1c3cc(c(OC)cc3CCN1C)Oc1c(OCC(O)CN3CCN(C#N)CC3)c(OC)cc3c1[C@H](C2)N(C)CC3 (stereo partly drawn) [BS-FC-421]", "IC90 (µg/mL)": 3.96}
{"compound": "C=CCOc1c(OC)cc2c3c1Oc1cc4c(cc1OC)CCN(C)[C@H]4Cc1ccc(cc1)Oc1cc(ccc1OC)C[C@@H]3N(C)CC2 [BS-FC-213]", "IC90 (µg/mL)": 5.29}
{"compound": "COc1ccc2cc1Oc1ccc(cc1)C[C@H]1c3cc(c(OC)cc3CCN1C)Oc1c(OS(=O)(=O)c3ccc(C)cc3)c(OC)cc3c1[C@H](C2)N(C)CC3 [BS-FC-102]", "IC90 (µg/mL)": 4}
{"compound": "COc1ccc2cc1Oc1ccc(cc1)C[C@H]1c3cc(c(OC)cc3CCN1C)Oc1c(OS(=O)(=O)c3ccccc3)c(OC)cc3c1[C@H](C2)N(C)CC3 [BS-FC-104]", "IC90 (µg/mL)": 3.94}
{"compound": "COc1ccc2cc1Oc1ccc(cc1)C[C@H]1c3cc(c(OC)cc3CCN1C)Oc1c(OCC3CC3)c(OC)cc3c1[C@H](C2)N(C)CC3 [BS-FC-208]", "IC90 (µg/mL)": 5.55}

Quick check: IC90 on Becap-37 (human breast cancer) cells, item COc1ccc2cc1Oc1ccc(cc1)C[C@H]1c3cc(c(OC)cc3CCN1C)Oc1c(OCC(O)CN3CCCC(C)C3)c(OC)cc3c1[C@H](C2)N(C)CC3 (stereo partly drawn) [BS-FC-410] ?
2.48

###

Here, each record is paired with measured IC90 data.
test system: Kasumi-1 (acute myeloid leukemia M2 type) cells; experiment: MTT cell growth inhibition, leukemia cells; type: cell-based, human; conditions: Homo sapiens; Kasumi-1, 72 h, MTT; read-out: IC90
Form field: result (number plus unit)

Solved entries:
{"compound": "COc1ccc2cc1Oc1ccc(cc1)C[C@H]1c3cc(c(OC)cc3CCN1C)Oc1c(OC(=O)C3CC3)c(OC)cc3c1[C@H](C2)N(C)CC3 [BS-FC-304]", "value-observed": "3.94 µg/mL"}
{"compound": "COc1ccc2cc1Oc1ccc(cc1)C[C@H]1c3cc(c(OC)cc3CCN1C)Oc1c(OCC(O)CN3CCSCC3)c(OC)cc3c1[C@H](C2)N(C)CC3 (stereo partly drawn) [BS-FC-417]", "value-observed": "3.63 µg/mL"}
{"compound": "COc1ccc2cc1Oc1ccc(cc1)C[C@H]1c3cc(c(OC)cc3CCN1C)Oc1c(OC(=O)c3c(F)cccc3Cl)c(OC)cc3c1[C@H](C2)N(C)CC3 [BS-FC-315]", "value-observed": "3.04 µg/mL"}

Fill in the blank: the reported IC90 of C=CCN(C)CC(O)COc1c(OC)cc2c3c1Oc1cc4c(cc1OC)CCN(C)[C@H]4Cc1ccc(cc1)Oc1cc(ccc1OC)C[C@@H]3N(C)CC2 (stereo partly drawn) [BS-FC-409] is ____.
4.82 µg/mL

Given the compound COc1ccc2cc1Oc1ccc(cc1)C[C@H]1c3cc(c(OC)cc3CCN1C)Oc1c(OCC3CC3)c(OC)cc3c1[C@H](C2)N(C)CC3 [BS-FC-208] , what is its reported IC90?
4.01 µg/mL

Requested field: IC90. Item: COc1ccc2cc1Oc1ccc(cc1)C[C@H]1c3cc(c(OC)cc3CCN1C)Oc1c(OC(=O)c3ccc(N(C)C)cc3)c(OC)cc3c1[C@H](C2)N(C)CC3 [BS-FC-308]
1.9 µg/mL

Ref: patent US9328122B2
